The measurements presented in this section are drawn from ChEMBL document CHEMBL4014309.

targetEntity: NACHT, LRR and PYD domains-containing protein 3 (Homo sapiens) (UniProt Q96P20)
Sequence (Q96P20 whole entry, the tested form may be a part): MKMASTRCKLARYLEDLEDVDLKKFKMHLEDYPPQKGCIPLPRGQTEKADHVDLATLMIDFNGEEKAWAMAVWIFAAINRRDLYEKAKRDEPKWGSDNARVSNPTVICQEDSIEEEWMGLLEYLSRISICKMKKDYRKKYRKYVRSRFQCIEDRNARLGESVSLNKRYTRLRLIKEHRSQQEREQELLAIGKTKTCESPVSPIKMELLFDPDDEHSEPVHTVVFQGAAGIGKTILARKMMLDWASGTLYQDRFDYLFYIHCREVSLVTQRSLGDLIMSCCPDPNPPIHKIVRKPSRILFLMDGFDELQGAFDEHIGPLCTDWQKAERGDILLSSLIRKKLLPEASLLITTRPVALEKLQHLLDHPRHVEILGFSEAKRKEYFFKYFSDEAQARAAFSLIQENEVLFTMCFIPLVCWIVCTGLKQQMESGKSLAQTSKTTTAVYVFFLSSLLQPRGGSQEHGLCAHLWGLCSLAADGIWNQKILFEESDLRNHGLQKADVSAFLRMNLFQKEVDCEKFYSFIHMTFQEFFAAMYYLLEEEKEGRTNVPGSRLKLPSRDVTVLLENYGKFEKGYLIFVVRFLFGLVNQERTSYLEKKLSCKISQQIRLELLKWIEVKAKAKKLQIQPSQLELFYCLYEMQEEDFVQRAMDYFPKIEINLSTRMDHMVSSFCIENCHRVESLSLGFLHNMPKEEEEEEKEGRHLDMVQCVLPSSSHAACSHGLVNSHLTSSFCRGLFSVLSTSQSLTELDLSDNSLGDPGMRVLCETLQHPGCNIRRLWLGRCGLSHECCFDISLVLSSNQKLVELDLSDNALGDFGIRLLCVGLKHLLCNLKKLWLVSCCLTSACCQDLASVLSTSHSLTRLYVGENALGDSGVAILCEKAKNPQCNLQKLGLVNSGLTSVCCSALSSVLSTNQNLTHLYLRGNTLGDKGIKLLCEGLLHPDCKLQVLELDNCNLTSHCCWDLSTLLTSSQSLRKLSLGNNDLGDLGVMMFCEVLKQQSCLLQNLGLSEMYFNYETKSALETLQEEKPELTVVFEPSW
testDetails: Inhibition of recombinant human NLRP3 ATPase assessed as hydrolysis of ATP at 50 uM preincubated for 15 mins followed by addition of ATP measured after 40 mins by ADP-Glo assay
Where a name gives a salt, the structure may show the parent alone. Activity calls are given as the source filed them. The calls are words filed in the database; no cut-off is given here.

compound: CC(Cc1ccccc1Cl)C(=O)O (configuration not stated)
inhibition: inactive

compound: CCOC(=O)C(C)Cc1ccccc1Cl (configuration not stated)
inhibition: inactive

compound: C=C(C(=O)O)C(O)c1ccc(Cl)cc1Cl (configuration not stated)
inhibition: 11%

compound: C=C(Cc1ccccc1Cl)C(=O)O
inhibition: 22%

compound: C=C(C(=O)O)C(O)c1ccccc1Cl (configuration not stated)
inhibition: 21%

compound: C=C(C(=O)OCC)C(O)c1ccc(Cl)cc1Cl (configuration not stated)
inhibition: 19%

compound: COC(=O)/C=C/C(=O)OC [DIMETHYL FUMARATE]
inhibition: inactive

compound: C=C(C(=O)OCC)C(OCCC(=O)OCC)c1ccc(Cl)cc1Cl (configuration not stated)
inhibition: 10%

compound: C=C(C(=O)OCC)C(OC)c1ccccc1Cl (configuration not stated)
inhibition: 24%

compound: C=C(C(=O)OCC)C(OCCC(=O)OCC)c1ccccc1Cl (configuration not stated)
inhibition: 27%

compound: C=C(Cc1ccccc1Cl)C(=O)OCC
inhibition: 29%

compound: C=C(C(=O)OCC)C(O)c1ccccc1Cl (configuration not stated)
inhibition: 32%

###

targetEntity: NACHT, LRR and PYD domains-containing protein 3 (Homo sapiens) (UniProt Q96P20)
testDetails: Inhibition of recombinant human NLRP3 ATPase assessed as hydrolysis of ATP at 100 uM preincubated for 15 mins followed by addition of ATP measured after 40 mins by ADP-Glo assay

molecule: C=C(C(=O)O)C(O)c1ccccc1Cl (configuration not stated)
targetEntity: NACHT, LRR and PYD domains-containing protein 3 (Homo sapiens) (UniProt Q96P20)
inhibition: 69%
--
molecule: C=C(C(=O)OCC)C(OC)c1ccccc1Cl (configuration not stated)
targetEntity: NACHT, LRR and PYD domains-containing protein 3 (Homo sapiens) (UniProt Q96P20)
inhibition: 60%
--
molecule: C=C(C(=O)OCC)C(O)c1ccc(Cl)cc1Cl (configuration not stated)
targetEntity: NACHT, LRR and PYD domains-containing protein 3 (Homo sapiens) (UniProt Q96P20)
inhibition: 35%
--
molecule: C=C(C(=O)OCC)C(O)c1ccccc1Cl (configuration not stated)
targetEntity: NACHT, LRR and PYD domains-containing protein 3 (Homo sapiens) (UniProt Q96P20)
inhibition: 72%
--
molecule: C=C(Cc1ccccc1Cl)C(=O)OCC
targetEntity: NACHT, LRR and PYD domains-containing protein 3 (Homo sapiens) (UniProt Q96P20)
inhibition: 52%
--
molecule: C=C(C(=O)OCC)C(OCCC(=O)OCC)c1ccccc1Cl (configuration not stated)
targetEntity: NACHT, LRR and PYD domains-containing protein 3 (Homo sapiens) (UniProt Q96P20)
inhibition: 56%
--
molecule: C=C(C(=O)O)C(O)c1ccc(Cl)cc1Cl (configuration not stated)
targetEntity: NACHT, LRR and PYD domains-containing protein 3 (Homo sapiens) (UniProt Q96P20)
inhibition: 43%

###

testDetails: Metabolic stability in Sprague-Dawley rat liver microsomes at 100 uM after 2 hrs in presence of NADPH-generating system by UHPLC-MS analysis
Assay type: ADME, microsome
protocolConditions: read-out: Stability
reportedMetric: remaining at 2 h, 100 µM

compoundStructure: C=C(Cc1ccccc1Cl)C(=O)O
reportedMetric: remaining at 2 h, 100 µM
observedValue: > 99%
